# Tested on: CDK9;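 note: KINOMEscan kinase panel screen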
# TEST CONTEXT: concentration: 1 μM, replicates: in singlicate; n = 1
MEASURED ATTRIBUTE: %Inh (%)

INSERT INTO assay_data (molecule, measured_attribute, readout_units, recorded_value) VALUES
  ('CC(C)(C)c1ccc(C(=O)Nc2cn3cc(-c4ccccc4)ccc3n2)cc1', '%Inh', '%', 6),
  ('Nc1nccc2scc(-c3ccc4c(c3)CCN4C(=O)Cc3ccccc3)c12 [GSK2576924]', '%Inh', '%', 0),
  ('Cl.c1ccc(Cn2cnc3cc(Nc4ncnc5ccccc45)ccc32)cc1 [GW272142]', '%Inh', '%', 0),
  ('Nc1ncnc2c1ncn2-c1cccc(F)c1 [SKF-97560]', '%Inh', '%', 0),
  ('FC(F)(F)c1ccc(-c2ncn(CCCN3CCOCC3)c2-c2ccncc2)cc1 [SB-217780]', '%Inh', '%', 0),
  ('COc1cc2ncn(-c3cc(OCc4ccncc4)c(C(N)=O)s3)c2cc1OC [GSK336313]', '%Inh', '%', 0),
  ('CCCNC(=O)Nc1ccc(Oc2ncnc3ccn(C)c23)cc1', '%Inh', '%', 0),
  ('COc1cc2nccc(Nc3cccc(Oc4ccccc4)c3)c2cc1OC.Cl [GW284543]', '%Inh', '%', 0),
  ('O=C(NCCNc1ccnc(Nc2ccc(F)cc2)n1)Nc1ccc2c(c1)OCO2 [GSK1379882]', '%Inh', '%', 7),
  ('Cc1nc(N(C)[C@H]2CN(C(=O)CC#N)CC[C@H]2C)c2cc[nH]c2n1', '%Inh', '%', 0),
  ('COc1ccc(CNC(=O)NC2CCN(c3ccnc(Nc4ccc(F)cc4)n3)C2)cc1 (centres unmarked) [GSK1379706]', '%Inh', '%', 5),
  ('Nc1ncnc2c1ncn2-c1cccc2ccccc12 [SKF-97184]', '%Inh', '%', 1),
  ('Cl.NS(=O)(=O)c1cccc(Nc2cc(-c3ccc(F)cc3)n[nH]2)c1 [GW824645]', '%Inh', '%', 5),
  ('COC(=O)c1c(-c2ccccc2)c2cc(C)ccc2c(=O)n1Cc1ccccc1', '%Inh', '%', 0);
